Biological target: CCR4 (Homo sapiens)
Construct: host or cells: CHO-K1
Sequence (P51679 1-360): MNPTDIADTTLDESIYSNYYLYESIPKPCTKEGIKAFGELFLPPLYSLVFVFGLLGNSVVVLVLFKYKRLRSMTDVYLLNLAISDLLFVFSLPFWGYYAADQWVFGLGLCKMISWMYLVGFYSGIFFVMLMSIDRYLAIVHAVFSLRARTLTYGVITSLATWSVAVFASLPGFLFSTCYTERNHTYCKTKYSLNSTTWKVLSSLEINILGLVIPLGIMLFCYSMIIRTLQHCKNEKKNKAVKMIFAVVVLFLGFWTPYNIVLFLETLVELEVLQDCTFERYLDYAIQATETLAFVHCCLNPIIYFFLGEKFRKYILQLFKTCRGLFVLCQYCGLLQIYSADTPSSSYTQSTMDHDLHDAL
Test: PathHunter eXpress CCR4 CHO-K1 β-Arrestin GPCR Assay, agonist format
Type: cell-based
Settings: 0.006 nM
Method: The aim of the present experiment was to analyze if if these peptides are functional using a Discoverx Assay, the Beta-Arrestin recruitment assay, to identify agonism or antagonism in the selected peptides. Standard protocols used: • PathHunter® eXpress CCR4 CHO-K1 β-Arrestin GPCR Assay. 100 dp (1×96-well) The experiment was carried using the manufacturer instructions. The concentration was increased to test for response at high concentration.
RESULT_TYPE: Raw Data

# SEQUENCE_DATA, RESULT_TYPE, RECORDED_NUMBER
rows = [
    ("ACLSCARHGNQCA [24-12-00-N001, bicyclic peptide ligand, TATA scaffold, from CCR4 cell-based selection]", "Raw Data", 31416),
    ("ACQLTCLPPPRQPGCA [24-15-00-N001, bicyclic peptide ligand, TATA scaffold, from CCR4 cell-based selection]", "Raw Data", 28566),
    ("ACPLMSSVNCTAGCA [24-13-00-N001, bicyclic peptide ligand, TBMB scaffold, from CCR4 cell-based selection]", "Raw Data", 27634),
    ("ACQTLCNTAEDIRCA [24-16-00-N001, bicyclic peptide ligand, TBMB scaffold, from CCR4 cell-based selection]", "Raw Data", 23153),
    ("ACLNGCRNTNSQCA [24-11-00-N001, bicyclic peptide ligand, TATA scaffold, from CCR4 cell-based selection]", "Raw Data", 24609),
    ("ACQLTCLTPARQPGCA [24-14-00-N001, bicyclic peptide ligand, TATA scaffold, from CCR4 cell-based selection]", "Raw Data", 28548),
    ("ACRAVHSLRCLTTCA [24-17-00-N001, bicyclic peptide ligand, TATA scaffold, from CCR4 cell-based selection]", "Raw Data", 27836),
]

# credit: patent US11946041B2
